Test system: SKOV3
test_details: Primary qHTS to identify gynecologic anti-cancer compounds using libraries of approved drugs and bioactive compounds (AID 1345084); also: % is scaled to controls: 0 for no effect and ±100 for the full control effect; nearly all actives have a fitted effect of over 55% in size
measurement_context: Gynecologic cancer cell panel viability, ATPlite luminescence, 48 h; series mostly up to 57.5 µM
Results filed as inconclusive are left out. Activity calls are given as the source filed them. Calls follow the shape of the dose curve; as a rule, active = well fitted cell-killing curve with a large enough effect; inconclusive = small, poorly fitted or top-dose-only effect, or effect the other way; inactive = flat fitted curve, though single readings scatter.

{"compound": "CC(=O)OC1CCC2(C)C(CCC3(C)C2CC=C2C4CC(C)(C)CCC4(C)CCC23C)C1(C)C(=O)O (stereo not drawn)", "activity change, negative = cytotoxicity": "inactive"}
{"compound": "CC1=COC(OC2OC(CO)C(O)C(O)C2O)C2C(CO)CC(OC(=O)/C=C/c3ccc(O)cc3)C12 (stereo not drawn)", "activity change, negative = cytotoxicity": "inactive"}
{"compound": "C=Cc1cc2oc(-c3ccc(O)c(F)c3)nc2cc1O", "activity change, negative = cytotoxicity": "inactive"}
{"compound": "CC(C)=CCC[C@](C)(O[C@@H]1O[C@H](CO[C@@H]2O[C@@H](CO)[C@H](O)[C@H]2O)[C@@H](O)[C@H](O)[C@H]1O)[C@H]1CC[C@]2(C)[C@@H]1[C@H](O)C[C@@H]1[C@@]3(C)CC[C@H](O[C@@H]4O[C@H](CO)[C@@H](O)[C@H](O)[C@H]4O[C@@H]4O[C@H](CO)[C@@H](O)[C@H](O)[C@H]4O)C(C)(C)[C@@H]3CC[C@]12C", "activity change, negative = cytotoxicity": "inactive"}
{"compound": "CC1(C)C=Cc2c(ccc3c2[N+]([O-])=C2C3(O)CC34NC(=O)C5(CCCN5C3=O)CC4C2(C)C)O1 (stereo not drawn)", "activity change, negative = cytotoxicity": "inactive"}
{"compound": "CCCCCOC(=O)Nc1nc(=O)n(C2O[C@H](C)[C@@H](O)[C@H]2O)cc1F (stereo partly drawn)", "activity change, negative = cytotoxicity": "inactive"}
{"compound": "C[C@@H]1O[C@@H](O[C@H]2[C@H](O[C@H]3[C@H](O[C@H]4CC[C@@]5(C)C(CC[C@]6(C)C5CC=C5[C@@H]7CC(C)(C)C[C@@H](O)[C@]7(C)CC[C@]56C)[C@@]4(C)CO)O[C@H](C(=O)O)[C@@H](O)[C@@H]3O)O[C@H](CO)[C@H](O)[C@@H]2O)[C@H](O)[C@H](O)[C@H]1O (stereo partly drawn)", "activity change, negative = cytotoxicity": "11% [at 11.6 µM] (inactive)"}
{"compound": "CC(O)C1CCC2C3CCC4CC(OC5OC(C(=O)O)C(O)C(O)C5O)CCC4(C)C3CCC12C (stereo not drawn)", "activity change, negative = cytotoxicity": "inactive"}
{"compound": "CC(C)(CC(=O)N1CCCC1)NCC(=O)N1C[C@@H](F)C[C@H]1C#N", "activity change, negative = cytotoxicity": "inactive"}
{"compound": "CC(=O)OC1CC(C(C)(C)O)OC2CCC3(C)OC4=C(C(=O)C=C5C(C)C(OC(C)=O)C6(C)C(C)OC546)C(O)C3C12C (stereo not drawn)", "activity change, negative = cytotoxicity": "inactive"}
{"compound": "CC1(C)CC[C@]2(C(=O)O[C@@H]3O[C@H](CO)[C@@H](O)[C@H](O)[C@H]3O)CC[C@]3(C)C(=CCC4[C@@]5(C)C[C@@H](O)[C@H](O)[C@@](C)(CO)C5[C@H](O)C[C@]43C)C2[C@@H]1O (stereo partly drawn)", "activity change, negative = cytotoxicity": "inactive"}
{"compound": "O=C(Nc1cc(-c2ccccc2)nn1-c1ccccc1)c1ccc([N+](=O)[O-])cc1", "activity change, negative = cytotoxicity": "inactive"}
{"compound": "O=C(Nc1ccn(Cc2c(F)cccc2C(F)(F)F)n1)c1c(F)cccc1F", "activity change, negative = cytotoxicity": "9.68% [at 11.6 µM] (inactive)"}
